- System name: KIN10 R141A (Arabidopsis thaliana, UniProt Q38997, R141A)
- Assay summary: MST binding of T6P to KIN10 R141A
Assay endpoint: pKd
Please keep in mind that pKd is minus log10 of the molar concentration; only the number is needed.

# lookup: O=P(O)(O)OC[C@H]1O[C@H](O[C@H]2O[C@H](CO)[C@@H](O)[C@H](O)[C@H]2O)[C@H](O)[C@@H](O)[C@@H]1O [T6P, trehalose 6-phosphate] on KIN10 R141A (Arabidopsis thaliana, UniProt Q38997, R141A), pKd = 4.28

###

- System name: KIN10 mutant 3 (K63A-R65A-R66A-K69A-L73A) (Arabidopsis thaliana, UniProt Q38997, K63A/K69A/L73A/R65A/R66A)
- Sequence (Q38997 19-271 K63A/R65A/R66A/K69A/L73A limits assumed): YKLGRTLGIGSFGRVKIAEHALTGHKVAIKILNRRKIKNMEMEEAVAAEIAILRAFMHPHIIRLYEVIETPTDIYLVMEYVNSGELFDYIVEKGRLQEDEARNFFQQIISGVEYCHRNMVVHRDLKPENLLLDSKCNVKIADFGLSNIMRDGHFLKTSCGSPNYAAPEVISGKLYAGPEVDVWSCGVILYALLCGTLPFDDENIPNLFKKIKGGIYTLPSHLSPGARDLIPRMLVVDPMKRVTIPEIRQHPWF
- Assay summary: MST binding of T6P to KIN10 mutant 3
Assay endpoint: pKd
Please keep in mind that pKd is minus log10 of the molar concentration; only the number is needed.

Notebook: O=P(O)(O)OC[C@H]1O[C@H](O[C@H]2O[C@H](CO)[C@@H](O)[C@H](O)[C@H]2O)[C@H](O)[C@@H](O)[C@@H]1O [T6P, trehalose 6-phosphate] , pKd read as 3.78

###

- System name: WT KIN10 (Arabidopsis thaliana, UniProt Q38997)
- Sequence (Q38997 19-271 limits assumed): as the sequence (Q38997 19-271 K63A/R65A/R66A/K69A/L73A limits assumed) above, with A45K, A47R, A48R, A51K, A55L counted along it
Assay endpoint: Kd
Answer format: number, then unit.

Notebook: O=P(O)(O)OC[C@H]1O[C@H](O[C@H]2O[C@H](CO)[C@@H](O)[C@H](O)[C@H]2O)[C@H](O)[C@@H](O)[C@@H]1O [T6P, trehalose 6-phosphate] , Kd read as 28 µM

###

- System name: KIN10 mutant 2 (R52A-R53A-K54A-K56A) (Arabidopsis thaliana, UniProt Q38997, K54A/K56A/R52A/R53A)
- Assay summary: MST binding of T6P to KIN10 mutant 2
Assay endpoint: pKd
Please keep in mind that pKd is minus log10 of the molar concentration; only the number is needed.

Notebook: O=P(O)(O)OC[C@H]1O[C@H](O[C@H]2O[C@H](CO)[C@@H](O)[C@H](O)[C@H]2O)[C@H](O)[C@@H](O)[C@@H]1O [T6P, trehalose 6-phosphate] , pKd read as 4.47

###

- System name: KIN10 K63A-R66A-R141A (Arabidopsis thaliana, UniProt Q38997, K63A/R141A/R66A)
- Sequence (Q38997 19-271 K63A/R66A/R141A limits assumed): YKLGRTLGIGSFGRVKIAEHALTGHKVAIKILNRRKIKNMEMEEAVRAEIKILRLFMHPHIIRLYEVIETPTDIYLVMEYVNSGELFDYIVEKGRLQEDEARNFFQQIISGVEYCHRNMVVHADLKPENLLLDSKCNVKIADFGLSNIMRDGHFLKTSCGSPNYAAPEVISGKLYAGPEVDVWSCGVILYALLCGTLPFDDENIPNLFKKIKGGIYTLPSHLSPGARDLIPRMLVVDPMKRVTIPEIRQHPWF
- Assay summary: biochemical
- Assay setup: Kds determined by MST, KIN10 K63A-R66A-R141A; Table 2 series
Assay endpoint: Kd (µM)
Report only the number, with the unit µM understood.

Notebook: O=P(O)(O)OC[C@H]1O[C@H](O[C@H]2O[C@H](CO)[C@@H](O)[C@H](O)[C@H]2O)[C@H](O)[C@@H](O)[C@@H]1O [T6P, trehalose 6-phosphate] , Kd read as 143

###

- System name: KIN10 mutant 1 (R23A-R32A-K34A) (Arabidopsis thaliana, UniProt Q38997, K34A/R23A/R32A)
- Assay summary: MST binding of T6P to KIN10 mutant 1
Assay endpoint: Kd (µM)
Report only the number, with the unit µM understood.

Notebook: O=P(O)(O)OC[C@H]1O[C@H](O[C@H]2O[C@H](CO)[C@@H](O)[C@H](O)[C@H]2O)[C@H](O)[C@@H](O)[C@@H]1O [T6P, trehalose 6-phosphate] , Kd read as 26

###

- System name: KIN10 R66A (Arabidopsis thaliana, UniProt Q38997, R66A)
- Assay summary: MST binding of T6P to KIN10 R66A
Assay endpoint: pKd
Please keep in mind that pKd is minus log10 of the molar concentration; only the number is needed.

# lookup: O=P(O)(O)OC[C@H]1O[C@H](O[C@H]2O[C@H](CO)[C@@H](O)[C@H](O)[C@H]2O)[C@H](O)[C@@H](O)[C@@H]1O [T6P, trehalose 6-phosphate] on KIN10 R66A (Arabidopsis thaliana, UniProt Q38997, R66A), pKd = 4.40
